assay: in vivo; conditions: mouse, po, mice, orally administered, measured one week after administration
READOUT NAME: LD50 at 168 h

Just so you know, measured LD50 at 168 h for COc1cc(NC(C)=O)ccc1OCC(O)CN1CCN(c2cccc(F)c2)CC1 (stereo not shown) came out at ~1500 mg/kg
